experiment: Cell Viability - LYMP2-019 (AID 973); conditions: LYMP2-019 lymphoblastoid cell line viability; series mostly up to 92.2 µM;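 further: cells exposed to compound for 24 h at 37 °C; nearly all actives have a fitted effect of over 55% in size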
Inconclusive results are not listed. Active and inactive are the calls of the source. The call rests on the fitted dose curve; in most records, active means well fitted cell-killing curve with a large enough effect; inconclusive means small, poorly fitted or top-dose-only effect; inactive means flat fitted curve, though single readings scatter.
Labels: 1 (yes) (active), 0 (no) (inactive)

{"columns": ["Compound", "Answer Label"],
 "data": [
  ["O=C(OCC(COC(=O)c1ccccc1)(COC(=O)c1ccccc1)COC(=O)c1ccccc1)c1ccccc1", "0 (no)"],
  ["CCCCCCCC[N+](CCCCCCCC)(CCCCCCCC)CCCCCCCC", "1 (yes)"],
  ["Cc1cccc(O)c1C", "0 (no)"],
  ["O=Cc1ccc(Cl)c(Cl)c1", "0 (no)"],
  ["CN1[C@H]2CC(OC(=O)[C@H](CO)c3ccccc3)C[C@H]1[C@H]1O[C@H]12 (some centres undefined)", "0 (no)"],
  ["c1ccc2c(c1)ccc1cc3c(ccc4ccccc43)cc12", "0 (no)"],
  ["CCCCCC/C(C=O)=C\\c1ccccc1", "0 (no)"],
  ["O=C(/C=C/c1ccc(O)c(O)c1)OC1C[C@](O)(C(=O)O)C[C@@H](O)[C@H]1O (some centres undefined)", "0 (no)"],
  ["CCC(C)Nc1ccc(NC(C)CC)cc1 (centres undefined)", "1 (yes)"],
  ["CNc1ccc(O)cc1", "1 (yes)"],
  ["CC(=O)Nc1ccc(C(=O)CCl)cc1", "1 (yes)"],
  ["C=C(C)c1ccccc1", "0 (no)"],
  ["c1ccc2c(c1)-c1cccc3c1c-2cc1ccccc13", "0 (no)"],
  ["C=CC(=O)OCCOCCOC(=O)C=C", "1 (yes)"]
]}
